Parameter Threshold of tumor cell numbers for HPV-16 detection: see the listing below.
Tested on: HPV-16
procedure text: qPCR sensitivity against HPV-HNSCC tumor samples diluted among 10 ng normal human DNA
assay conditions: Sample # 26
measurement label: Threshold of tumor cell numbers for HPV-16 detection (tumor cells)

* E6: previously designed (historical) HPV-16 E6 primers and Taqman probe, SEQ ID NO: 7-9, positive control (nucleic acid, Taqman probe, labels not given here) DNA 1: TCAGGACCCACAGGAGCG DNA 2: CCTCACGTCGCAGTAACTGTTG DNA 3: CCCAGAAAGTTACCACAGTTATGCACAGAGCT | 0.6
* BR E6-1: HPV-16 E6 region (172-373 bp) primer/probe set, SEQ ID NO: 58-60 (nucleic acid, chemistry not given here) DNA 1: CAGTTACTGCGACGTGAGGT DNA 2: ACAGCATATGGATTCCCATCTC DNA 3: ACTTTGCTTTTCGGGATTTATGCATAGTA | 1.2
